Source: patent US20090111823A1

Entries and their Kp
Assay: Determination of brain to plasma ratio in rat
Format: in vivo
Conditions: female Sprague Dawley rats, read-out: Brain/Plasma Ratio of compound in Rat
// return just the number, without any unit appended

Smiles code | Kp
CN(C)c1ccc(-c2nnc(N3CCC[C@@H]3c3cc(-c4cccc(Cl)c4)on3)n2C)cn1 | 0.285

[Q] Write down Kp measured for item `Cn1c(-c2ccc(N)nc2)nnc1N1CCC[C@@H]1c1cc(-c2cccc(Cl)c2)on1`
[A] 0.085
